- measured-target: Vitamin D3 receptor (Homo sapiens)
- Sequence (P11473 whole entry): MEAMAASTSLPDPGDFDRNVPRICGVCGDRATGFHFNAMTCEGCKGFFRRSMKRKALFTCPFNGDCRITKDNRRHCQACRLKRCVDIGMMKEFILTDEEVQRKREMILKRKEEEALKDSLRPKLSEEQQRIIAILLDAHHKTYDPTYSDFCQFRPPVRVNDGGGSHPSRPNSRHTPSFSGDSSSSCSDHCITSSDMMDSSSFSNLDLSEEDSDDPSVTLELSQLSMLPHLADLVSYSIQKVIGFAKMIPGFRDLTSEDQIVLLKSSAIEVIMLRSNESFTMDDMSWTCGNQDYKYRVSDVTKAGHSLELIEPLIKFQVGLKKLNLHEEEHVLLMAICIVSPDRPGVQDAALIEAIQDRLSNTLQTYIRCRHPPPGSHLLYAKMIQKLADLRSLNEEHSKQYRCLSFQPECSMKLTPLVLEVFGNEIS
- measurement-description: Antagonist activity at human VDR in COS7 cells assessed as induction of transcriptional transactivation after 24 hrs by mouse osteopontin luciferase reporter gene assay
- Format: functional, cell-based, COS-7
Quick reference for IC50 among some molecules
recorded-endpoint: IC50 (nM)

                               given_smiles  quantitative_readout
0  C=C1C[C@H](C[C@H](C)[C@H]2CC[C@H]3/C(=C/C=C4C[C@@H](O)C(=C)[C@H](O)C4)CCC[C@]23C)OC1=O                   100
1  C=C1C[C@@H](C[C@@H](C)[C@H]2CC[C@H]3/C(=C/C=C4C[C@@H](O)C(=C)[C@H](O)C4)CCC[C@]23C)OC1=O                  1000
2  C=C1C[C@@H](C[C@H](C)[C@H]2CC[C@H]3/C(=C/C=C4C[C@@H](O)C(=C)[C@H](O)C4)CCC[C@]23C)OC1=O                   300
